assay: Solubility of solid organic sunscreens in solubilizers (25° C.); assay type: physicochemical; conditions: solute 4-Methylbenzylidene camphor (MBC)
Solubility of MBC in the solvent vs 30 wt. %: at or above is yes, below is no.

Data request: Given the entry CCCCC(CC)C(=O)OCCc1ccccc1 (centres unmarked) [2-phenylethyl 2-ethylhexanoate] , answer whether its Solubility of MBC in the solvent meets or surpasses 30 wt. %.
Data returned: yes

Data request: Entry O=C(OCCc1ccccc1)C1CC1 [2-phenylethyl cyclopropanoate, 2-Phenylethyl Cyclopropanecarboxylate] : is its Solubility of MBC in the solvent no less than 30 wt. %?
Data returned: yes

Data request: I'd appreciate it if you could say whether CCCCCCCCOC(=O)OCCCCCCCC [dioctyl carbonate, reference compound] has Solubility of MBC in the solvent at least equal to 30 wt. %.
Data returned: no

Data request: Reported Solubility of MBC in the solvent at or above 30 wt. %? CC(C)(C)C(=O)OCCc1ccccc1 [2-phenylethyl neopentanoate]
Data returned: yes

Data request: Given the entry CC(=O)OCCc1ccccc1 [2-phenylethyl acetate] , answer whether its Solubility of MBC in the solvent meets or surpasses 30 wt. %.
Data returned: yes
